- assayed.system: T1, soluble FGFR4 receptor protein (human, UniProt P22455 144-369)
- T1 sequence: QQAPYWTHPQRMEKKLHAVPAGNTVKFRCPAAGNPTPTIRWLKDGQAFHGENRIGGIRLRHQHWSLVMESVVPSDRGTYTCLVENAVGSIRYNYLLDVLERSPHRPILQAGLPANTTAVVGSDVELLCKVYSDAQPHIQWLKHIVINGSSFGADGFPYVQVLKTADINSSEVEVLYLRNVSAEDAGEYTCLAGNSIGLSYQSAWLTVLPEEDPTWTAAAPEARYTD
- test.summary: BLI Octet RED96, antibody on anti-hIgG Fc tip
Form field: koff (one value per entry).
Express the result in s⁻¹ but write the number alone.

binder	koff (s⁻¹)
Vk9 combined with the VH of Ab15 (antibody, V domains shown, captured on anti-human IgG Fc tips) VH: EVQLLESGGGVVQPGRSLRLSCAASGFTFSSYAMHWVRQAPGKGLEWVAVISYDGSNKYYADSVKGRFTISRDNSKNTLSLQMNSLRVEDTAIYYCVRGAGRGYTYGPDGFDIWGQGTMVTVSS VL: DIVMTQSPDSLAVSLGERATINCKSSQSLLHSDGKTYVYWYQQKPGQPPKLLIYELSNRFSGVPDRFSGSGSGTDFTLTISSLQAEDVAVYYCMQYIEAPLTFGGGTKVEIK	0.000692
Ab60 (antibody, human IgG2, kappa, V domains shown, format in the assays not spelled out) VH: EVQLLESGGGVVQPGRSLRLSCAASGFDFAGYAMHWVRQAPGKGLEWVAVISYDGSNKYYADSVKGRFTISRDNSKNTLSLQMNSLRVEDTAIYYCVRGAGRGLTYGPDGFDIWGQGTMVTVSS VL: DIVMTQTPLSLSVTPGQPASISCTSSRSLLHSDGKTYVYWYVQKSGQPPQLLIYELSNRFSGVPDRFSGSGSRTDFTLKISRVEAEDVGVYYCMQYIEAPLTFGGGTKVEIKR	0.00169

Please turn your attention to the following entry.
Requested field: koff. Item: Vk3 combined with the VH of Ab15 (antibody, V domains shown, captured on anti-human IgG Fc tips) VH: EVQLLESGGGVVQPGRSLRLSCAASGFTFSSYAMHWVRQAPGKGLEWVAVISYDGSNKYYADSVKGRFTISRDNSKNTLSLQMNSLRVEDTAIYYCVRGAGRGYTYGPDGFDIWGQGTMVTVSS VL: DIVMTQTPLSLSVTPGQPASISCTSSRSLLHSDGKTYVYWYLQKSGQPPQLLIYELSNRFSGVPDRFSGSGSRTDFTLKISRVEAEDVGVYYCMQYIEAPLTFGGGTKVEIK
0.000855
